tested on: MeWo (No NRAS or BRAF mutation); test: MTT cell viability assay, MeWo melanoma; format: cell-based, human; conditions: Homo sapiens, MeWo, 24 h
pIC50: −log10 of the molar value.
ENDPOINT_NAME: pIC50

Sure, the documented pIC50 for C=C1C(=O)OC2CC3=C[C@@H](C/C(C)=C/C(OC(=O)c4ccc(Br)cc4)[C@H]12)OC3=O (stereo partly drawn) [DETD-34] is 5.14

Please fill in: pIC50 reported for C=C1C(=O)OC2CC3=C[C@@H](C/C(C)=C/C(OC(=O)/C=C/c4cc(OC)c(OC)c(OC)c4)[C@H]12)OC3=O (stereo partly drawn) [DETD-7] = < 5.00

The measurements presented in this section are drawn from patent US10238631B2.
